# target-or-system: oxytocin receptors (Rattus norvegicus, UniProt P70536)
# Construct: Rat uterus; from tissue; host or cells: isolated rat uterus
# Sequence (P70536 whole entry): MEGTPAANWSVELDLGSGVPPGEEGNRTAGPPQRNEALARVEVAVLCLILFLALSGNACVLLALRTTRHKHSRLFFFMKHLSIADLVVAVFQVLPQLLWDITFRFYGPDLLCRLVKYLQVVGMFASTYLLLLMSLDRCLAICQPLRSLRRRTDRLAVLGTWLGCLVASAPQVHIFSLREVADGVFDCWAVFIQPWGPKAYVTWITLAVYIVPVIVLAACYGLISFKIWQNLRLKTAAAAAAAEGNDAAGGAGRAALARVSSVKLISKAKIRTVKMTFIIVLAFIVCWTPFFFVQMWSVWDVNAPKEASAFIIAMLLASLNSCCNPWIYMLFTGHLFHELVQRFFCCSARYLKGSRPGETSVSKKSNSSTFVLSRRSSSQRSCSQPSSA
# measurement-protocol: Isolated rat uterus protocol, oxytocin antagonism
# Format: cell-based
# test-settings: read-out: Rat OXT KB
*1 amine or outer side, *2 acyl side, *3 side chain or, on linkers, in order; H or OH if unused. Where a SMILES comes first, the peptide text is derived from it. Bridges are numbered along the chain shown (N, C = ends). [ ]: non-standard residue; d: D form. The star is where a group is joined. X1 = CC(C)(CC(=O)[*:1])S[*:2]; NH(CH2)4NH2 = NCCCCN*; Mpa = O=C(O)CCS
readout: Kb (nM)
Give just the numeric value; nM need not be written.

Reported Kb for CCOc1ccc(C[C@@H]2NC(=O)CCSSC[C@@H](C(=O)N[C@@H](CCCNC(=N)N)C(N)=O)NC(=O)[C@H](CC(N)=O)NC(=O)[C@H]([C@@H](C)O)NC(=O)[C@H]([C@@H](C)CC)NC2=O)cc1 [E] ([Mpa]Y(Et)ITNCR-NH2; disulfide 1-6) : what is it?
11.4

Reported Kb for CCOc1ccc(C[C@H]2NC(=O)CCSSC[C@@H](C(=O)N3CCC[C@H]3C(=O)NCCCCN)NC(=O)[C@H](CC(N)=O)NC(=O)[C@H]([C@@H](C)O)NC(=O)[C@H]([C@@H](C)CC)NC2=O)cc1 [C] ([Mpa][dY](Et)ITNCP-{NH(CH2)4NH2}; disulfide 1-6) : what is it?
1.6

Reported Kb for COc1ccc(C[C@@H]2NC(=O)CC(C)(C)SSC[C@@H](C(=O)N3CCC[C@H]3C(=O)NCCCCN)NC(=O)[C@H](CC(N)=O)NC(=O)[C@H](CCC(N)=O)NC(=O)[C@H](Cc3ccccc3)NC2=O)cc1 [A] (Y(Me)FQNCP-{NH(CH2)4NH2}; linker N-5 via X1) : what is it?
5.91

Reported Kb for CCOc1ccc(C[C@@H]2NC(=O)CCSSC[C@@H](C(=O)N[C@@H](CCCNC(=N)N)C(=O)NCC(N)=O)NC(=O)[C@H](CC(N)=O)NC(=O)[C@H]([C@@H](C)O)NC(=O)[C@H]([C@@H](C)CC)NC2=O)cc1 [D] ([Mpa]Y(Et)ITNCRG-NH2; disulfide 1-6) : what is it?
17.7

---

Record form. Attribute: Kb. Fill in for each entry.
# target-or-system: V2 -vasopressin receptors (Sus scrofa)
# Construct: Medullary pig kidney tissue; from tissue; host or cells: medullary pig (hog) kidney tissue
# Sequence (P32307 whole entry): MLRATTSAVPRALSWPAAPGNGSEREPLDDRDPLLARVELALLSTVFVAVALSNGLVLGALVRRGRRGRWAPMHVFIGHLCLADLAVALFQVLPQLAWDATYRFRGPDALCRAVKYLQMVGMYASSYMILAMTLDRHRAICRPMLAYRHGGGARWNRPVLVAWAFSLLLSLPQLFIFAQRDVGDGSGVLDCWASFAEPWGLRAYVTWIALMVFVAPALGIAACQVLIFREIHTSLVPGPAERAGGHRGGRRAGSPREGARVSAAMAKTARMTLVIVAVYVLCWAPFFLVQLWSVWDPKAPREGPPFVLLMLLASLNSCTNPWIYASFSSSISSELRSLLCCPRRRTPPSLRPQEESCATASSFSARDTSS
# measurement-protocol: V2-vasopressin receptor binding, inhibition of 3H-LVP binding, medullary pig kidney tissue
*1 amine or outer side, *2 acyl side, *3 side chain or, on linkers, in order; H or OH if unused. Where a SMILES comes first, the peptide text is derived from it. Bridges are numbered along the chain shown (N, C = ends). [ ]: non-standard residue; d: D form. The star is where a group is joined. X1 = CC(C)(CC(=O)[*:1])S[*:2]; NH(CH2)4NH2 = NCCCCN*; Mpa = O=C(O)CCS

Reported Kb for CCOc1ccc(C[C@@H]2NC(=O)CCSSC[C@@H](C(=O)N[C@@H](CCCNC(=N)N)C(=O)NCC(N)=O)NC(=O)[C@H](CC(N)=O)NC(=O)[C@H]([C@@H](C)O)NC(=O)[C@H]([C@@H](C)CC)NC2=O)cc1 [D] ([Mpa]Y(Et)ITNCRG-NH2; disulfide 1-6) : what is it?
4.1 µM

Reported Kb for CCOc1ccc(C[C@H]2NC(=O)CCSSC[C@@H](C(=O)N3CCC[C@H]3C(=O)NCCCCN)NC(=O)[C@H](CC(N)=O)NC(=O)[C@H]([C@@H](C)O)NC(=O)[C@H]([C@@H](C)CC)NC2=O)cc1 [C] ([Mpa][dY](Et)ITNCP-{NH(CH2)4NH2}; disulfide 1-6) : what is it?
5.7 µM

Reported Kb for CCOc1ccc(C[C@@H]2NC(=O)CCSSC[C@@H](C(=O)N[C@@H](CCCNC(=N)N)C(N)=O)NC(=O)[C@H](CC(N)=O)NC(=O)[C@H]([C@@H](C)O)NC(=O)[C@H]([C@@H](C)CC)NC2=O)cc1 [E] ([Mpa]Y(Et)ITNCR-NH2; disulfide 1-6) : what is it?
1.6 µM

Reported Kb for COc1ccc(C[C@@H]2NC(=O)CC(C)(C)SSC[C@@H](C(=O)N3CCC[C@H]3C(=O)NCCCCN)NC(=O)[C@H](CC(N)=O)NC(=O)[C@H](CCC(N)=O)NC(=O)[C@H](Cc3ccccc3)NC2=O)cc1 [A] (Y(Me)FQNCP-{NH(CH2)4NH2}; linker N-5 via X1) : what is it?
8.6 µM
